Recorded TGI for the following compounds
system: OVCAR-3 ovarian; assay: NCI tumour cell line growth inhibition, 48 h

{"columns": ["Compound", "TGI"],
 "data": [
  ["c1ccc2c(-c3cnn4cc(-c5ccc(N6CCNCC6)cc5)cnc34)ccnc2c1", "2.72 µM"],
  ["CC(=O)[C@]12OC(=O)C3=C1[C@H](CC[C@@H]3C)[C@@H](C)C[C@H]2C=C(C)C", "14 µM"],
  ["Cn1ccc2c3c(=O)cc[nH]c3ccc21", "> 100 µM"],
  ["CC(=O)Oc1cc(/C=C/c2ccc(O)cc2)cc(OC(C)=O)c1", "> 100 µM"],
  ["CCOC(=O)N1CCc2cc(OC)c(OC)cc2/C1=C/c1ccc(OC)c(OC)c1", "> 100 µM"],
  ["CN(C)CCC(=O)N1CCc2c([nH]c3ccccc23)C1c1cccnc1 (configuration not stated)", "> 100 µM"],
  ["O=[N+]([O-])c1cc(Cl)ccc1S(=O)(=O)c1ccc(Cl)cc1[N+](=O)[O-]", "31.1 µM"],
  ["Cc1cc(Cl)cc2c1NC(=O)C2(O)CC(=O)c1ccc(F)cc1 (configuration not stated)", "96.5 µM"],
  ["CCOC(=O)C1=C(C)N(NC(=O)OC)C2(N)N(NC(=O)OC)C(C)=C(C(=O)OCC)C12C#N (configuration not stated)", "> 100 µM"],
  ["O=c1cc(-c2ccc3ccccc3c2)[nH]c2ncccc12", "> 100 µM"],
  ["CC(C)(C)OC(=O)NCC(=O)N(CCc1ccc(Cl)c(Cl)c1)CCN1CCCC1", "32.2 µM"],
  ["COCCNC1CCC(=O)c2[nH]c3ccccc3c21 (configuration not stated)", "> 100 µM"],
  ["O=c1[nH]cc(COCC(O)CO)c(=O)[nH]1 (configuration not stated)", "> 100 µM"],
  ["Cc1ccc(S(=O)(=O)OI(O)CC(F)(F)F)cc1", "> 100 µM"],
  ["Cc1cc(C)nc(NS(=O)(=O)c2ccc(Nc3nnc(/C=C/c4c(O)ccc5ccccc45)c(=O)n3N)cc2)n1", "56 µM"],
  ["COC(=O)/C(C#N)=C(/NCc1ccccc1)Nc1ccccc1", "> 100 µM"],
  ["COc1ccc(C(=O)C/C(=N/NC(N)=S)C(=O)Nc2ccccc2)cc1", "> 100 µM"],
  ["O=C1Nc2ccc(CN3CCOC3=O)cc2/C1=C/c1cc(CN2CCOCC2)c[nH]1", "> 100 µM"],
  ["O=C1C(CO)=C[C@@H](O)[C@H]2O[C@@H]12", "> 100 µM"],
  ["CC1NCCc2c1[nH]c1cc(O)ccc21 (configuration not stated)", "> 100 µM"],
  ["OCc1ncc(-c2ccccc2)s1", "> 100 µM"],
  ["O=C1O/C(=C(/Cl)c2c3ccccc3cc3ccccc23)c2ccccc21", "60.9 µM"]
]}

---

tested on: SK-OV-3 ovarian; assay: NCI tumour cell line growth inhibition, 48 h
Recorded GI50 for the following compounds
Assay endpoint: GI50

{"columns": ["Compound", "Reported value"],
 "data": [
  ["C[C@@H]1CC[C@@H]2[C@@H]1[C@H](OC(=O)c1ccc3ccccc3c1)[C@]1(C3CCCCC3)C[C@@H](OC(=O)CO)[C@@]2(C)O1", "14.4 µM"],
  ["O=c1oc2c(cc1-c1ccccc1)C(O)Oc1ccccc1-2 (stereo unspecified)", "10.2 µM"],
  ["CC(=O)N1N=C(c2ccc(Nc3nc(Nc4ccc(F)cc4)nc(Nc4ccc(Cl)cc4)n3)cc2)CC1c1ccc(N(C)C)cc1 (stereo unspecified)", "6.82 µM"],
  ["O=C([CH-]C(=O)c1ccccc1)c1ccccc1.[CH3-].[CH3-].[CH3-].[Sn+4]", "27.1 µM"],
  ["CCCC(CCC)Oc1ccc(CCCC2=C(O)c3ccccc3C(=O)C2=O)cc1", "12.6 µM"],
  ["N#CSCC1CC(O)(c2ccccc2)CC(c2ccc(Cl)cc2)O1 (stereo unspecified)", "14.3 µM"],
  ["COc1ccc(C2SCC(=O)N2NC(=O)C(O)c2ccccc2)cc1 (stereo unspecified)", "> 100 µM"],
  ["O=C(O)c1cc2cc(O)ccc2[nH]1", "> 100 µM"],
  ["C=C(CN(C)Cc1ccccc1)c1ccc(C(=O)Nc2ccccc2N)cc1", "5.28 µM"],
  ["Cc1cc(S(=O)(=O)Nc2nc3ccccc3[nH]2)c(SCc2ccccc2)cc1Cl", "70.3 µM"],
  ["CNC1=CC(=O)C2=C(C1=O)C1C3=C(C(=O)C(Br)=C(OC)C3=O)C2c2ccccc21 (stereo unspecified)", "2.15 µM"]
]}
